Sourced from patent US6472421B1

- System: Alzheimer's disease (AD) in patients over the age of 60
- method: Health care database study at three hospitals: frequency of AD by medication (ICD-9-CM codes)
- Type: in vivo, human
- appliedConditions: patients 60 years or over; Hines Veterans Authority Medical Center
reportedProperty: Prevalence Of AD/1000 Hines

# molecule, Prevalence Of AD/1000 Hines
data = [
    ("COCCc1ccc(OCC(O)CNC(C)C)cc1 (stereo not drawn)", "4.4 /1000"),
    ("CC(C)NCC(O)COc1cccc2ccccc12 (stereo not drawn)", "3.9 /1000"),
    ("NS(=O)(=O)c1cc(C(=O)O)c(NCc2ccco2)cc1Cl [Furosemide, furosemide]", "9.0 /1000"),
    ("CC(C)NCC(O)COc1ccc(CC(N)=O)cc1 (stereo not drawn)", "7.1 /1000"),
    ("C[C@H](CS)C(=O)N1CCC[C@H]1C(=O)O", "8.4 /1000"),
]

Attention now shifts to the item below.
molecule CC[C@H](C)C(=O)O[C@H]1C[C@H](O)C=C2C=C[C@H](C)[C@H](CC[C@@H](O)C[C@@H](O)CC(=O)O)[C@H]21 , Prevalence Of AD/1000 Hines observed: 1.1 /1000
